System: SW-620 colon
experimental_protocol: NCI tumour cell line growth inhibition, 48 h
Would you mind telling me the reported GI50 of each entry?

Solved entries (count: 6):
compound_string | GI50
CCCN(CCC)CCCNCc1cc(I)cc(C)c1O | 14.3 µM
NS(=O)(=O)c1ccc(NC(=O)c2ccc(NC3=C(Cl)C(=O)N(Cc4ccccc4)C3=O)cc2)cc1 | 2.69 µM
COc1cc2c(/C=N\N=C(N)N)c(Cl)[nH]c2cc1C | 14.7 µM
COC(=O)[C@@H](NC(=O)NC(=O)NC(=O)CI)C(C)C | 2.04 µM
COc1cc2c(cc1OCCCN1CCN(CCCOc3cc4c(cc3OC)C(=O)N3CCC[C@H]3C=N4)CC1)C=CC(C)(C)O2 | 0.634 µM
Cc1ccccc1NC(=S)Nc1ccccn1 | > 100 µM

Continue with the next compound.
**Query** Annotate the compound `O=P([O-])(O)OP(=O)([O-])O.[NH-][C@H]1CCCC[C@@H]1[NH-].[OH-].[OH-].[Pt+4]` with its measured GI50.
**Result** 55.8 µM
